FYI, the data here is from patent US20090221680.

Measured pKd, listed per entry for reference.
Target: thrombin (alpha-thrombin) (Homo sapiens, UniProt P00734;P00734 P00734:315-363,P00734:364-622)
Test: filter
The quantity pKd is defined as the negative base-10 logarithm of the molar concentration.

In the examples that follow, each entry is paired with its recorded pKd.
UGCCUAGGTTGGGTAGGGTGGUGGCA (XNA, 2'-OMe 1-5,22,23,25,26, rest DNA) [ARC2837]
8.58
ACTGCCTAGGTTGGGTAGGGTGGTGGCAGT (ssDNA, PS linkage between nt 26 and 27) [ARC2669]
9.89

Query (binder): ACUGCCTAGGTTGGGTAGGGTGGTGGCAGU (XNA, 2'-OMe 1-6,25,27-30, rest DNA) [ARC2824] ; field requested: pKd
9.14

Now the binder GATTAGGTTGGGTAGGGTGGTATC (ssDNA) [ARC2847]
9.68

Now the binder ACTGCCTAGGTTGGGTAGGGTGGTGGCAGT (XNA, 2'-OMe G18, rest DNA) [ARC2630]
8.28

Now the binder ACTGCCTAGGTTGGGTAGGGTGGTGGCAGU (XNA, 2'-OMe U30, rest DNA) [ARC2642]
10.03

Now the binder GAUUAGGTTGGGTAGGGTGGUAUC (XNA, 2'-OMe 1-4,21-24, rest DNA) [ARC2848]
8.68
